// reported composite z-score for each item listed
- assayed system: Calmodulin-1 (Homo sapiens) (UniProt P0DP23)
- protocol details: small molecules binding calmodulin-1 with EGTA – biochemical, small-molecule microarray, Cy5-labelled CALM1, profiling panel (AID 1111);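 note: labelled calmodulin applied in Tris saline Tween buffer holding calcium plus EGTA and DTT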
- measurement conditions: Cy5-CALM1 binding fluorescence, higher = more signal
I only need the number, thanks.

Field: example entries. Status: answers known.
{"molecule smiles": "COc1ccc(CCNC(=O)[C@@H]2c3ccccc3C(=O)N(C3CCCCC3)[C@H]2c2ccc(CO)cc2)cc1", "composite z-score": 0.112}
{"molecule smiles": "COCCOC(=O)N1C(=O)[C@@]2(c3cc(C#CC4(O)CCCCCC4)ccc31)[C@H](C(=O)N1CCc3cc(OC)c(OC)cc3C1)[C@H]1C(=O)O[C@H](c3ccccc3)[C@H](c3ccccc3)N1[C@@H]2c1ccc(OCCO)cc1", "composite z-score": 0.903}
{"molecule smiles": "CCCNC(=O)[C@@]1(Sc2ccc(C)cc2)CC(=O)N(C2Cc3ccccc3C2)[C@@H]1c1ccc(CO)cc1I", "composite z-score": 0.183}
{"molecule smiles": "CCCCNC(=O)c1ccc(C#CC(C)(C)C)c(OC(C)=O)c1", "composite z-score": 0.0614}

Let us examine a further case.
The molecule listed as CC(C)NC(=O)[C@@]1(c2ccc([N+](=O)[O-])cc2)CC(=O)N(C2CCCCC2)[C@@H]1c1ccc(CO)cc1 has a reported composite z-score of -0.0034
